Data credit: PubChem BioAssay (NCI)

# Test system: T-47D breast
# Assay summary: NCI tumour cell line growth inhibition, 48 h; in the data active = GI50 below about 0.43 µM; inactive = the rest
Classes used: active, inactive

O=C(c1ccc(Cl)cc1)c1no[n+]([O-])c1C(=O)c1ccc(Cl)cc1 ... inactive
COc1cc(/C=C/c2cc(/C=C/c3ccc(O)c(OC)c3)n(-c3c(Cl)cccc3Cl)c(=O)n2)ccc1O ... inactive
CNC(=O)NCC1OC(n2cnc3c(NC(=O)Nc4ccccc4)ncnc32)C(O[Si](C)(C)C(C)(C)C)C1CC(=O)N(C)OC (stereo not drawn) ... inactive
COc1cc2c(cc1I)-c1c(cc(OC)c(OC)c1OC)CC[C@@H]2NC(C)=O ... active
COc1ccc(/C=C/C(=O)c2cc3c(N)c(C(=O)Nc4cccc(Cl)c4C)sc3nc2C)cc1 ... active
CC1(C)C(N(O)C(=O)Nc2ccc(Cl)cc2)N(c2ccc(Cl)cc2)C(=O)N1CC(=O)N/N=C/C=C/c1ccc([N+](=O)[O-])o1 (stereo not drawn) ... inactive
COc1cc2c3c(n(CCCNCCNCCN)c(=O)c2cc1OC)-c1cc2c(cc1C3=O)OCO2 ... inactive
CS(=O)(=O)O[C@H]1C(=O)N(c2cc3c4ccccc4ccc3c3ccccc23)[C@@H]1c1ccccc1 ... inactive

====

The molecules listed here are annotated with their TGI.
# Test system: SNB-78 CNS
# Assay summary: NCI tumour cell line growth inhibition, 48 h
Measured quantity: TGI

COc1cccc2c1N[S@](=O)S2 ... > 100 µM
O=C(c1nc2ccc(Cl)cc2[nH]c1=O)C(O)c1ccccc1 (centres undefined) ... > 100 µM
COc1cc2c(cc1OC)C1[C@@H](c3ccccc3)OCN1CC2 (some centres undefined) ... > 100 µM
c1ccc(C2(c3ccccc3)SSC3(S2)C2CC4CC(C2)CC3C4)cc1 (centres undefined) ... > 100 µM
COC1=CC(=Nc2c(Cl)cc(Cl)cc2OC(=O)c2ccc([N+](=O)[O-])cc2)C=C(OC)C1=O ... 56.9 µM
CCOc1ccc(N=Nc2ccc3oc(=O)c(/C(C)=N/NC(=O)CC(=O)Nc4cccc(OC)c4)cc3c2)cc1 ... > 95.9 µM
O=C(NN1C(=O)C(Cl)C1c1ccc(O)cc1)c1ccccc1O (centres undefined) ... 65.4 µM
CC1CCC(=O)NCCCCC(=O)N1 (centres undefined) ... > 100 µM
CNCCCCN(C)/[N+]([O-])=N\O ... > 100 µM
Clc1cccc(Cl)c1C1SCc2nc3ccccc3n21 (centres undefined) ... > 100 µM
COC(=O)/C(=N\NC(=O)c1ccccc1O)C(C#N)c1ccccc1 (centres undefined) ... > 50 µM
CC(N)Cc1ccc(F)cc1 (centres undefined) ... > 100 µM
CCN(CC)CCNc1ccc2nnn3c4ccc([N+](=O)[O-])cc4c(=O)c1c23 ... 63.8 µM
O=[N+]([O-])c1ccc(C2=Nn3c(nnc3-c3ccccc3)SC2)o1 ... 44.7 µM
O/N=C1/C(=C/c2ccc(Cl)c(Cl)c2)CCCC1C(NO)c1ccc(Cl)c(Cl)c1 (centres undefined) ... 37.7 µM
O=C(N[C@@H](c1ccccc1)[C@@H](O)C(=O)OCc1ccc2c(c1)OCO2)c1ccccc1 ... > 100 µM
COC(=O)/C=C/C1C2C3(CCC(C)C12C)OCCS3 (centres undefined) ... > 100 µM
N#Cc1ccccc1NC(=O)/C(=N\Nc1ccc([N+](=O)[O-])cc1)C1C(=O)NC(=O)NC1=O ... > 100 µM
CCOC(=O)C(C)c1c(C(=O)c2ccc(C)nc2)c2ccccc2n1C (centres undefined) ... > 100 µM

====

# Tested on: MOLT-4 leukemia
# Assay summary: NCI tumour cell line growth inhibition, 48 h; in the data active = GI50 below about 0.43 µM; inactive = the rest
Classes used: yes for active, no for inactive

COc1cc(/C=C/c2cc(/C=C/c3ccc(O)c(OC)c3)n(-c3c(Cl)cccc3Cl)c(=O)n2)ccc1O ... no
CC1=C2O[C@]3(O)C=C2C(=C(O)C1=O)[C@@H]1O[C@H](CC[C@H](C)/C=C(\C)C[C@@H](C)C[C@@H]3C)[C@H](C)[C@H](O)[C@H]1C ... yes
O=C(Nc1nc(-c2ccc(Cl)cc2)cs1)c1cc(-c2ccc(Br)cc2)nc2ccc(Cl)cc12 ... no
CC(=O)NS(=O)(=O)c1ccc(-n2nc(-c3ccc(Cl)cc3)cc2-c2cc(O)ccc2O)cc1 ... no
c1ccc2cc(C[n+]3ccn(CCCCCCCCCCCCn4cc[n+](Cc5ccc6ccccc6c5)c4)c3)ccc2c1 ... no
c1cc2c(s1)SSSSS2 ... no
Cn1ccc(=O)c2c(O)c3ccccc3c(O)c21 ... no
O=C(c1ccc(Cl)cc1)c1no[n+]([O-])c1C(=O)c1ccc(Cl)cc1 ... no
CC1(C)CN(c2cc(C(F)(F)F)cc3cncn23)CCC12NC(=O)NC2=O (stereo unspecified) ... no
C=C1C(=O)O[C@H]2[C@H]1CC/C(COC(=O)/C=C/C(=O)NCc1ccc(Cn3c(=O)sn(-c4ccccc4)c3=O)cc1)=C\CC[C@@]1(C)O[C@@H]21 ... no
N#Cc1c(-c2ccccc2)cc(-c2ccccc2)n(CCCC(=O)NO)c1=O ... no
COc1cc2ccnc(C=O)c2cc1OC ... no
Clc1ccc(OCc2nn3c(CCCCc4nnc5sc(COc6ccc(Cl)cc6Cl)nn45)nnc3s2)c(Cl)c1 ... no
CCC[CH2][Sn]1([CH2]CCC)[O]C(=O)c2cccc(C)c2[O]1 ... yes
NC1CCCCC1N.Nc1c(N=Nc2ccc(-c3ccc(N=Nc4cc(S(=O)(=O)[O-])c5ccccc5c4N)cc3)cc2)cc(S(=O)(=O)[O-])c2ccccc12.[OH3+].[OH3+].[Pt+4] ... no
[N-]=[N+]=NCCCn1c2c(c3cc4c(cc3c1=O)OCO4)C(=O)c1ccccc1-2 ... yes
COc1ccc(/C=C/C(=O)c2cc3c(N)c(C(=O)Nc4cccc(Cl)c4C)sc3nc2C)cc1 ... yes
O=C1Nc2ccccc2/C1=C\c1c(Cl)nc2sccn12 ... no
COc1cc2c(cc1I)-c1c(cc(OC)c(OC)c1OC)CC[C@@H]2NC(C)=O ... no
CC(C)=[CH][Sb]([Br])([CH]=C(C)C)([CH]=C(C)C)[c]1ccccc1 ... no
O=C(COc1nc2ccccc2nc1-c1ccccc1)Nc1ccc(Cl)cc1 ... no

====

The compounds listed here are annotated with their TGI.
# Test system: SF-295 CNS
# Assay summary: NCI tumour cell line growth inhibition, 48 h
Measured quantity: TGI

CC(C)OC(=O)C1=C2c3ncccc3C(=O)N2[C@@H](Cl)[C@H](Cl)[C@H]1Cl ... > 100 µM
CN(C)CCNc1ccc2nnn3c4ccccc4c(=O)c1c23 ... 13.8 µM
Cc1c2c(cc3c1[nH]c1ccccc13)C(c1ccc(Cl)cc1)=NCC2 ... 0.718 µM
Cn1c(-c2ccccc2)cc(-c2ccsc2)c1-c1ccsc1 ... > 100 µM
NCCCCCCCCCCn1c2c(c3ccccc3c1=O)C(=O)c1ccccc1-2 ... 22 µM
NCCCOc1cc2ccccc2cc1C(=O)NCCOc1nc2ccccc2cc1C(=O)Nc1ccc(Cl)cc1O ... 2.47 µM
O=C1c2[nH]c3ccccc3c2CCN2CCCCC12 (stereo not given) ... 90.2 µM
O=C(/C=C/NC(=O)OCc1ccccc1)OCc1ccccc1 ... > 100 µM
CC1=C(O)C(=O)C(C2=C(O)C(=O)C(C)=C(O)C2=O)=C(O)C1=O ... > 100 µM
O=c1c(-c2ccccc2)c2n(c3ccccc13)CCN2 ... > 100 µM
CC1(C)C(N(O)C(=O)Nc2ccc(Cl)cc2)N(c2ccc(Cl)cc2)C(=O)N1CC(=O)N/N=C/C=C/c1ccc([N+](=O)[O-])o1 (stereo not given) ... > 100 µM
COC1/C=C\C=C(/C)C(=O)NC2=CC(=O)C(N)=C(CC(C)CC(OC)C(O)C(C)C=C(C)C1OC(N)=O)C2=O (stereo not given) ... > 62.2 µM
c1coc(C2=Nc3cccc4cccc(c34)N2)c1 ... > 100 µM
Cc1cc2c(O)c(c1)COCc1cc(C)cc(c1O)COCc1cc(C)cc(c1O)COC2 ... > 100 µM
N[C@]1(C(=O)O)C[C@@H]2C(Br)=NO[C@@H]2C1 ... > 100 µM
CCOC(=O)C1C(O)CC2c3ccccc3-c3ccccc3C21 (stereo not given) ... > 100 µM
COc1cccc(/C=N/[N-]C(=O)c2ccncc2)c1[O-].[Ni+2].[OH3+] ... > 100 µM
Cc1ccc(-n2c(=O)c3nn4c(=O)n(-c5ccc(C)cc5)c(=O)c4nn3c2=O)cc1 ... > 100 µM
CCOCCOC(=O)C1CCC(=O)N1CN(C(C)=O)c1cc(OC)ccc1OC (stereo not given) ... > 100 µM
CC1=CC(C)(C)[C@H]2O[C@@]3(O)C[C@]4(C)[C@H]5C[C@@](C(C)C)(O[C@H]4c4ccoc4)O[C@H]4[C@]5(C3)O[C@@]1(O)[C@]24O ... > 100 µM
